target: Translocator protein (Rattus norvegicus, UniProt P16257); assay: Displacement of [3H]Ro-5-4864 from rat cerebral cortex peripheral benzodiazepine receptor; assay type: tissue-based
Sequence (P16257 whole entry, looked up): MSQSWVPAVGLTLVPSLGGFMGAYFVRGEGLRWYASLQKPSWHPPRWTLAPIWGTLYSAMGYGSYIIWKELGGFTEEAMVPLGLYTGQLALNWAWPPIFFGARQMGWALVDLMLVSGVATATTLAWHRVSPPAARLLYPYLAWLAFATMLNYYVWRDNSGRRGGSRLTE
Measured property: pIC50
Answers are plain numbers, as −log10 of the molar value.

Example compounds with recorded pIC50:
>  <Structure as smiles>
CN(C(=O)/C=C1\c2nc3ccccc3cc2C(=O)N1c1ccc(Cl)cc1)c1ccc(Cl)cc1

>  <Experimental value>
8.35

$$$$
>  <Structure as smiles>
COc1ccc(N(C)C(=O)/C=C2\c3nc4ccccc4cc3C(=O)N2c2ccc(Cl)cc2)cc1

>  <Experimental value>
8.64

$$$$

q: Dear colleague, please send me the reported pIC50 for `CCCN(CCC)C(=O)/C=C1\c2nc3ccccc3cc2C(=O)N1c1ccc(Cl)cc1` when you can.
a: 6.92
